# assay system: HLA-A*02:02
# experiment notes: IEDB peptide-MHC binding, cellular MHC/competitive/fluorescence; bounds were set here for any values at or beyond the usual limits of such assays
# recorded conditions: source organism: Influenza A virus
Classification by IC50 follows these ranges: range A = under 10 µM, range B = from 10 µM up to 20 µM, range C = 20 µM and over

Just checking, what class would you give AAFEDLRL here?
range B

Just checking, what class would you give RASAGQISV here?
range C

Just checking, what class would you give TVPSERGL here?
range C

Just checking, what class would you give ATKRIRMA here?
range C

Just checking, what class would you give TVIKNNMI here?
range C

Just checking, what class would you give NVLSIAPI here?
range C

Just checking, what class would you give IAYERMCNIL here?
range C

Just checking, what class would you give PLIRHENRMVL here?
range C

Just checking, what class would you give TVDHMAII here?
range C

Just checking, what class would you give PAHKSQLV here?
range C

Just checking, what class would you give CVNGSCFTV here?
range B

Just checking, what class would you give TATKRIRMA here?
range C

Just checking, what class would you give VATTHSWI here?
range C

Just checking, what class would you give SAAFEDLRLL here?
range C

Just checking, what class would you give PACVYGLA here?
range C

Just checking, what class would you give LAKSVFNSL here?
range B

Just checking, what class would you give AIRGQYSGFV here?
range A

Just checking, what class would you give LLLVVQALR here?
range B

Just checking, what class would you give ATVSADPL here?
range C

Just checking, what class would you give NVKDYSIV here?
range C

Just checking, what class would you give ALSYSTGA here?
range C

Just checking, what class would you give PACVYGPA here?
range B

Just checking, what class would you give RAEIIRMMEGA here?
range B

Just checking, what class would you give RAMAWTVV here?
range A

Just checking, what class would you give AAMDDFQLI here?
range A

Just checking, what class would you give ATRRMIQL here?
range C

Just checking, what class would you give RTEIIRMMESA here?
range A

Just checking, what class would you give NVMGMIGI here?
range A

Just checking, what class would you give GLQSSDDFA here?
range B

Just checking, what class would you give TVQIIKLL here?
range C

Just checking, what class would you give NTTIEKEI here?
range C

Just checking, what class would you give HANNSTDTV here?
range A

Just checking, what class would you give NLPFDKTTIMA here?
range A

Just checking, what class would you give AAFEDLRV here?
range C

Just checking, what class would you give FLKVPAQNA here?
range A

Just checking, what class would you give TLNRNQPAA here?
range B

Just checking, what class would you give TLNTMTKDA here?
range B

Just checking, what class would you give SAAFEDLRL here?
range B

Just checking, what class would you give NTVSSFQV here?
range C

Just checking, what class would you give RAVKLYRKL here?
range C

Just checking, what class would you give PAEMLASI here?
range C

Just checking, what class would you give PAEMLANI here?
range C

Just checking, what class would you give AAGAAVKGV here?
range C

Just checking, what class would you give QARQMVQAMRA here?
range C

Just checking, what class would you give VNPTLLFLKV here?
range A

Values were extracted from the Immune Epitope Database (IEDB).
